Value source: patent US20260242478A1

# system: T1, PSMA Fab
# T1 construct: Biotinylated and captured on neutravidin coated plates in the phage ELISA; also called 006 PSMA Fab; Anti-PSMA Fab
# run_description: phage ELISA; biotinylated PSMA Fab on neutravidin plate, clonal phage supernatant, anti-M13 HRP; wells pre-incubated with PSMA antigen as competitor
Where no end group is shown, it is not given here.
I would appreciate it if you labelled entries TRUE when phage binding ELISA signal is 0.08 or higher, otherwise FALSE.

Example entries begin here.
1) LTNWCTPQWMCLGF (Peptide-180 library clone, tested as clonal phage (peptide fused to pIII)) [Phage-2423] :: FALSE
2) EYKWCVPIWMCAYD (cysteine pairing not given here; also: displayed as fusion to phage pIII, Peptide-180 library clone, tested as clonal phage (peptide fused to pIII)) [Phage-2427] :: TRUE
3) GDNWCKPAWMCRDM (Peptide-180 library clone, tested as clonal phage (peptide fused to pIII)) [Phage-2433] :: FALSE

Continue with the next binder.
Is reported phage binding ELISA signal greater than or equal to 0.08 here: EIKWCTPPWMCTIG (Peptide-180 library clone, tested as clonal phage (peptide fused to pIII)) [Phage-2430]
TRUE
